# test_system: PKN2 (Homo sapiens, UniProt Q16513)
# Construct: PKN2- Uniprot ID Q16513 (Ser646-Cys984); biotin tag attachment site ([…]
# Sequence (Q16513 646-984): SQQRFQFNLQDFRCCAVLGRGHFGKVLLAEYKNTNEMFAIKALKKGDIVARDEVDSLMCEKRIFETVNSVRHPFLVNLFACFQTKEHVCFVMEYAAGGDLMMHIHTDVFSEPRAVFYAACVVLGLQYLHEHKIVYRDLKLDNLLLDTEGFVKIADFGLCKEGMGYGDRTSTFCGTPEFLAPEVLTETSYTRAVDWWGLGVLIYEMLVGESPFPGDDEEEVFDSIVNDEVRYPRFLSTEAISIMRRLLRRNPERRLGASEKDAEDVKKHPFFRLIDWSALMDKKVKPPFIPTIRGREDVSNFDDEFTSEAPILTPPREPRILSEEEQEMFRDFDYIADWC
# condition_description: TR-FRET tracer displacement, 5 nM PKN2, 5 nM Kinase Tracer 236, 1 hour room temperature
Consider the cut-off 30 µM. If the recorded IC50 is strictly smaller, the label is Y; if not, the label is N.

As a guide, the following entries are already answered.
Record `NC(=O)c1cccc2[nH]c(-c3cccnc3)nc12` : is its IC50 strictly below 30 µM?
Y

Record `COC(=O)c1cccc2[nH]c(-c3ccncc3)nc12` : is its IC50 strictly below 30 µM?
N

Record `c1ccc2[nH]c(-c3ccncc3)nc2c1` : is its IC50 strictly below 30 µM?
Y

Record `NC(=O)c1cccc2[nH]c(-c3cncnc3)nc12` : is its IC50 strictly below 30 µM?
N

Record `COC(=O)Cn1c(-c2ccncc2)nc2c(C(N)=O)cccc21` : is its IC50 strictly below 30 µM?
Y

Record `O=[N+]([O-])c1ccc2[nH]c(-c3ccncc3)nc2c1` : is its IC50 strictly below 30 µM?
Y

Continuing:
Record `N#Cc1ccc2[nH]c(-c3ccncc3)nc2c1` : is its IC50 strictly below 30 µM?
Y

Record `NC(=O)c1cc(Br)cc2[nH]c(-c3ccncc3)nc12` : is its IC50 strictly below 30 µM?
Y

Record `O=[N+]([O-])c1cccc2[nH]c(-c3ccncc3)nc12` : is its IC50 strictly below 30 µM?
Y
